# experiment: Drug uptake in Wistar rat plasma at 100 mg/kg, po after 1 hr by LC-MS/MS analysis
# Format: ADME, organism-based
measurement_kind: concentration at 1 h (µM)
Respond with the bare value in µM.

The reported concentration at 1 h of the molecule C[C@@H]1CN(Cc2ccccc2)c2cnccc2[C@H](C)N1C(=O)NCc1ccccc1 (racemic) was 6.78

###

Each record here notes measured pIC50.
# assayed_target: Voltage-dependent T-type calcium channel subunit alpha-1H (Homo sapiens)
# Sequence (O95180 whole entry): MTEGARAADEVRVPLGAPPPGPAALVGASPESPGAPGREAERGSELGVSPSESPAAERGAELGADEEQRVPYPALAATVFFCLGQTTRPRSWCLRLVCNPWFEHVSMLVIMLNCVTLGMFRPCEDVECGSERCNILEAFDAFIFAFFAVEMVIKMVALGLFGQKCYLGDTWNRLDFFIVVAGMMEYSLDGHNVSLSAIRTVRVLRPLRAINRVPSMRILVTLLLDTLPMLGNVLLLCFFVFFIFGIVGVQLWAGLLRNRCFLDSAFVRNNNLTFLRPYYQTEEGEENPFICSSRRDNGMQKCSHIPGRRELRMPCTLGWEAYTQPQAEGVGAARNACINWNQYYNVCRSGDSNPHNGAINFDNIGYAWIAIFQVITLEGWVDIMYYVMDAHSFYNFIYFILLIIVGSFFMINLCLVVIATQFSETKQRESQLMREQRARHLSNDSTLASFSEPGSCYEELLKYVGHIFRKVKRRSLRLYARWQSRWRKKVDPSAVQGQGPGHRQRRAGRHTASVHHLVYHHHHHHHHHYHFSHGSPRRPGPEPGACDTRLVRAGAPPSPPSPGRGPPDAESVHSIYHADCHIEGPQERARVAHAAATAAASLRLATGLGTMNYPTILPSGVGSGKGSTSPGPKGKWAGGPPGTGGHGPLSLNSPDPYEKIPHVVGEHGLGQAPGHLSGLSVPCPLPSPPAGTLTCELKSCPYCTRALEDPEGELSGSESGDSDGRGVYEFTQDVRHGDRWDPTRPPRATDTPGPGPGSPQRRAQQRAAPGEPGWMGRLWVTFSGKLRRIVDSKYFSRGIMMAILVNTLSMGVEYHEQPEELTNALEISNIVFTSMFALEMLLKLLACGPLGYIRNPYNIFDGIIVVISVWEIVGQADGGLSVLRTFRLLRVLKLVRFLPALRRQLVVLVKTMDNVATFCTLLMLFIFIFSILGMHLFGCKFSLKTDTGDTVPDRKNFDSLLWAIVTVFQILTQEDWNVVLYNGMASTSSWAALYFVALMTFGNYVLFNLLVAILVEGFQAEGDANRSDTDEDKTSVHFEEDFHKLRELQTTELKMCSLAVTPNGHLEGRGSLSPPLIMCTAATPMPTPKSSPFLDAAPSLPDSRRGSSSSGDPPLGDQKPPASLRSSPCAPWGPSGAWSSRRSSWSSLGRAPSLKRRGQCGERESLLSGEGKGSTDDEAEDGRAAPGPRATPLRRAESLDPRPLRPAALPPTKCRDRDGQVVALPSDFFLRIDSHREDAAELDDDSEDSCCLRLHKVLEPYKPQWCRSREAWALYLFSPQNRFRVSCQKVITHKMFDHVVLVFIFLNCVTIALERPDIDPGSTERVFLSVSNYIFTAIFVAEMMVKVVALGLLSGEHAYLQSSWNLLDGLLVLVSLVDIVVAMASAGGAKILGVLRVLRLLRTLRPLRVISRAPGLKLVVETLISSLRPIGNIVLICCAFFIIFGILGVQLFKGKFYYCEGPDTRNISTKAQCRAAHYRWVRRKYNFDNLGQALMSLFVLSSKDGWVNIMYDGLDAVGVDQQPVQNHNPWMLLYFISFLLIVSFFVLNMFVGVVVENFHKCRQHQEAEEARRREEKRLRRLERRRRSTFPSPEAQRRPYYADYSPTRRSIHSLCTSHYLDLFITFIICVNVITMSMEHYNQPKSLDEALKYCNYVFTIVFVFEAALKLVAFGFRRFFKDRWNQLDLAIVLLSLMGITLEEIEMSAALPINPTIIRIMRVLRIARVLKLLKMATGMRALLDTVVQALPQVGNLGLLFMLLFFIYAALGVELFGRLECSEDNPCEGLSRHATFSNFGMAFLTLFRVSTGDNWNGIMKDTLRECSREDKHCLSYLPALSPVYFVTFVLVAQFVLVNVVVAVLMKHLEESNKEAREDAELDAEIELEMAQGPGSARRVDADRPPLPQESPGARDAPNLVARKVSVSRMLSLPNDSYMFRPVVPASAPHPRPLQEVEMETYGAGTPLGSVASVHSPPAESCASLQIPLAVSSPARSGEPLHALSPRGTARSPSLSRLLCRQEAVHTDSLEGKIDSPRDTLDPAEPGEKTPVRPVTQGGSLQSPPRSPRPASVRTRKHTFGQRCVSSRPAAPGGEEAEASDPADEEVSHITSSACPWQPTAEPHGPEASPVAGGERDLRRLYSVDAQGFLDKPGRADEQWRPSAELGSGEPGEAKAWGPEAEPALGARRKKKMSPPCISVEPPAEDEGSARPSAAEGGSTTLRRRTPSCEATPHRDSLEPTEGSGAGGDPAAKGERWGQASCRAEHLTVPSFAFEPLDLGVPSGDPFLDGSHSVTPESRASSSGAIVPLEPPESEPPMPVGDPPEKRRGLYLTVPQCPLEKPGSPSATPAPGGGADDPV
# experiment: Channel blocking activity at recombinant human CaV 3.2 channel expressed in HEK293 cells assessed as inhibition of Ca2+ flux preincubated for 3 mins followed by CaCl2 addition by fluo-4 dye-based FLIPR assay
# reply with the number alone; pIC50 is -log10 of concentration in mol/L

Example compounds with recorded pIC50:
{"columns": ["compound", "pIC50"],
 "data": [
  ["C[C@@H]1CN(Cc2ccc(C(F)(F)F)o2)c2ccccc2[C@H](C)N1C(=O)Nc1cccnc1 (racemic)", 7.85],
  ["C[C@@H]1CN(CCOC(C)(C)C)c2ccccc2[C@H](C)N1C(=O)Nc1cccnc1 (racemic)", 7.04],
  ["COc1ccc(CN2C[C@@H](C)N(C(=O)NCc3ccccc3)[C@@H](C)c3ccccc32)cn1 (racemic)", 7.48]
]}

The reported pIC50 of the compound C[C@@H]1CN(Cc2ccccc2)c2ccccc2[C@H](C)N1C(=O)NCc1ccccc1 (racemic) was 7.46

The reported pIC50 of the compound C[C@H]1CN(Cc2ccccc2)c2ccccc2[C@H](C)N1C(=O)NCc1ccccc1 (racemic) was 6.47

The reported pIC50 of the compound C[C@@H]1CN(Cc2ccc(F)cc2)c2ccccc2[C@H](C)N1C(=O)Nc1cccnc1 (racemic) was 7.51

The reported pIC50 of the compound C[C@@H]1CN(Cc2ccccc2)c2cncc(F)c2[C@H](C)N1C(=O)NCc1ccccc1 (racemic) was 7.14

The reported pIC50 of the compound CC(C)CCN1C[C@@H](C)N(C(=O)CCc2cccnc2)[C@@H](C)c2ccccc21 (racemic) was 7.21
